All figures here come from PubChem BioAssay (NCATS).

# study-target: Cytochrome P450 2D6 (Homo sapiens)
# assay-overview: Cytochrome P450 family 2 subfamily D member 6 (CYP2D6) small molecule antagonists: luciferase biochemical (cell-free) qHTS assay (AID 1645840); further: nearly all actives have a fitted effect of over 55% in size; further: potency means the concentration at half of the fitted maximal effect
# conditions: P450-Glo CYP2D6 enzyme, luciferin luminescence, 1 h; series mostly up to 57.4 µM
Records with an inconclusive call do not appear. Activity calls are given as the source filed them. The call rests on the fitted dose curve; in most records, active means well fitted inhibition curve with a large enough effect in the repeat runs; inconclusive means weak or mixed curves; inactive means flat fitted curve, though single readings scatter.
test-readout: Potency

The examples below pair each entry with its known result.
- molecule: "O=c1[nH]cnc2[nH]ncc12"
  study-target: "Cytochrome P450 2D6 (Homo sapiens)"
  experimental-value: "inactive"
- molecule: "CC(=O)Oc1ccccc1C(=O)O"
  study-target: "Cytochrome P450 2D6 (Homo sapiens)"
  experimental-value: "15.5 µM (active)"
- molecule: "Cc1ccc2c(c1)C(=O)[C@@]1(O)CCN(c3ccccc3)C1=N2"
  study-target: "Cytochrome P450 2D6 (Homo sapiens)"
  experimental-value: "inactive"
- molecule: "COc1cc(Oc2ccnc3cc(OC)c(OC)cc23)ccc1NC(=O)NC(C)c1nccs1 (stereo unspecified)"
  study-target: "Cytochrome P450 2D6 (Homo sapiens)"
  experimental-value: "inactive"

Find the recorded Potency belonging to OC[C@H](Cc1ccccc1)Nc1nc(Oc2ccc3c(c2)CCC3)nc2c1ncn2Cc1ccc(-c2ccccc2)cc1 and report it. inactive

Value lookup for Potency; key = c1ccc([C@H]2CN3CCSC3=N2)cc1 30.9 µM (active)

----------
# study-target: N-terminal Xaa-Pro-Lys N-methyltransferase 1 (Homo sapiens) (UniProt Q9BV86)
# Sequence (Q9BV86 whole entry, looked up): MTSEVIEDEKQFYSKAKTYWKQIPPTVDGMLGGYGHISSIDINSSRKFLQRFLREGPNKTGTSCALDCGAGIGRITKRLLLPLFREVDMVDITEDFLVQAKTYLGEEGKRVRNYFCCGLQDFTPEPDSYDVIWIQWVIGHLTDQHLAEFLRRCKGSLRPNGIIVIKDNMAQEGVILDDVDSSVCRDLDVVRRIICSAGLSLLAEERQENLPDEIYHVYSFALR
# assay-overview: qHTS Assay for Inhibitors of N-terminal methyltransferase 1 (NTMT1): LOPAC validation of the NTMT1 SAHH-coupled ThioGlo3 Assay (AID 1347143);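 further: SAH from peptide methylation measured as thiol fluorescence via SAHH coupling and ThioGlo3; nearly all actives have a fitted effect of over 70% in size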
# conditions: recombinant NTMT1, SAHH-coupled ThioGlo3 fluorescence; series mostly up to 114 µM
Records with an inconclusive call do not appear. Calls of active or inactive are those of the source. The call rests on the fitted dose curve; in most records, active means well fitted inhibition curve with a large enough effect; inconclusive means small, poorly fitted or top-dose-only effect; inactive means no such curve, though single readings can be large or run the other way.
Select the correct class. Options are active, inactive and nothing else.

- compound: "C[C@]12CCC(=O)C=C1CC[C@@H]1[C@@H]2[C@@H](O)C[C@@]2(C)[C@H]1CC[C@]2(O)C(=O)CO"
  classification: "inactive"

// return assay outcome for CN1CCN(CCCN2c3ccccc3Sc3ccc(C(F)(F)F)cc32)CC1 active

Which result was noted for this compound in the test: CNC[C@H](O)c1cccc(O)c1 inactive

In this assay, the call recorded for Cc1cnc(NC(=O)C2=C(O)c3ccccc3S(=O)(=O)N2C)s1 was what? inactive

Field: outcome | Entry: CCC(C)N(C)C(=O)c1cc2ccccc2c(-c2ccccc2Cl)n1 (stereo unspecified) inactive

Per the assay record, what outcome was assigned to CCn1cc(C(=O)O)c(=O)c2cc(F)c(N3CCNC(C)C3)c(F)c21 (stereo unspecified) ? active

# lookup: test call for NCCc1ccc(O)c(O)c1 active

What was the test verdict on Cc1ccc(N(CC2=NCCN2)c2cccc(O)c2)cc1 ? inactive

Name the outcome recorded for NC(=O)c1cnccn1 in the assay. inactive

# lookup: test call for Cc1cccc(-c2[nH]c(C(C)(C)C)nc2-c2ccc3nccnc3c2)n1 inactive

Hello, I am checking results. What call was entered for Cc1cc2c(C(C)C)c(O)c(O)c(C=O)c2c(O)c1-c1c(C)cc2c(C(C)C)c(O)c(O)c(C=O)c2c1O ? active

----------
# assay-overview: qHTS profiling of the MIPE4 collection as inhibitors of Plasmodium falciparum (3D7) proliferation (AID 743344);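 further: scaled between DMSO vehicle wells and 0.29 µM artemisinin as full inhibition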
# conditions: P. falciparum 3D7 in erythrocytes, SYBR Green DNA fluorescence, 72 h; at 28.5 µM (top of the series) unless noted
The reader will find reported parasite growth, % of DMSO control values listed item by item below.
Please reply with the bare figure in % and do not write the unit itself.

- compound: "O=C1CCCC2=C1C(c1[nH]ncc1Cl)N=C(Nc1nc3ccccc3o1)N2 (configuration not stated)"
  uom: "%"
  experimental-value: 20.6
- compound: "Cn1cnc([N+](=O)[O-])c1Sc1ncnc2nc[nH]c12"
  uom: "%"
  experimental-value: 47.3
- compound: "O=c1ncn2nc(Sc3ccc(F)cc3F)ccc2c1-c1c(Cl)cccc1Cl"
  uom: "%"
  experimental-value: 17.6
- compound: "c1ccc([C@H]2CN3CCSC3=N2)cc1"
  uom: "%"
  experimental-value: 92.1
- compound: "CCn1c(-c2nonc2N)nc2cnc(Oc3cccc(NC(=O)c4ccc(OCCN5CCOCC5)cc4)c3)cc21"
  uom: "%"
  experimental-value: 13.1

Next up:
Request the reported parasite growth, % of DMSO control associated with CCOc1cc(N2CCC(O)CC2)ccc1Nc1ncc2c(n1)N(C)c1ccccc1C(=O)N2C 4.46

----------
# assay-overview: qHTS of pediatric cancer cell lines to identify multiple opportunities for drug repurposing: Primary screen for A673 cells (AID 1347092); further: nearly all actives have a fitted effect of over 45% in size
# conditions: A673 Ewing sarcoma viability, CellTiter-Glo ATP luminescence, 48 h; series mostly up to 46 µM
Inconclusive results are not listed. Activity calls are given as the source filed them. Calls come from the whole dose curve; as a rule, active = well fitted cell-killing curve with a large enough effect; inconclusive = small, poorly fitted or top-dose-only effect; inactive = no such curve, though single readings can be large or run the other way.
Give your call using only these classes: active, inactive

Solved cases (3 shown):
- compound: "Cc1csc(NC(=O)c2sc3nc4c(c(C(F)(F)F)c3c2N)CCC4)n1"
  classification: "active"
- compound: "CNC(=O)c1ccc(N2C(=S)N(c3ccc(C#N)c(C(F)(F)F)c3)C(=O)C2(C)C)cc1F"
  classification: "inactive"
- compound: "COc1ccccc1-c1cccc(-c2c(O)c3cc(C#N)c(Cl)cc3[nH]c2=O)c1"
  classification: "inactive"

Please state the recorded outcome for this compound: Nc1nccc(-c2ccc3noc(-c4ccc(Cl)cc4)c3c2)n1 active

# outcome recorded in this test, key = CC(C)NCC(O)COc1ccc(COCCOC(C)C)cc1 (centres undefined) inactive

GET /call?item= Clc1cccc(Cl)c1NC1=NCCN1 returns the recorded outcome of this test. inactive

# lookup: test call for Cn1c(=O)c(F)c(Nc2ccc(I)cc2F)c2c(=O)n(C[C@@H](O)CO)cnc21 inactive

What outcome does the record of this test show for CCCCNc1cc(C(=O)O)cc(S(N)(=O)=O)c1Oc1ccccc1 ? inactive

For O=C(Nc1nc2ccccc2n1CCN1CCOCC1)c1cccc([N+](=O)[O-])c1 , what call appears in the results of this test? active

Test call, this compound: COc1cc2nccc(Oc3ccc(NC(=O)NC4CC4)c(Cl)c3)c2cc1C(N)=O active

Please state the recorded outcome for this compound: CCC(=O)N[C@H]1CC[C@H](C(=O)N(C)c2ccc(-c3nc4ccccc4o3)cc2)C1 active

Dear all, I need the recorded test outcome for OC(CCN1CCCCC1)(c1ccccc1)C1CC2C=CC1C2 (centres undefined) , thank you. inactive

What did this assay record as the result for O=C1CCC(N2C(=O)c3ccccc3C2=O)C(=O)N1 (centres undefined) ? inactive

Give the logged outcome of this assay for the following compound: O=NN(CCCl)C(=O)NCCCl inactive

Recorded test call requested for Cc1[nH]c(=O)c(C#N)cc1-c1ccc2nccn2c1 inactive

In this assay, the call recorded for CNCc1ccc(-c2[nH]c3cc(F)cc4c3c2CCNC4=O)cc1 was what? active

Give the logged outcome of this assay for the following compound: CCc1ccc(CCOc2ccc(CC3SC(=O)NC3=O)cc2)nc1 (centres undefined) inactive

Outcome logged for Cc1ccccc1C(C(=O)NC1CCCC1)N(C(=O)Cn1cnc2ccccc21)c1cccc(F)c1 (centres undefined) in this assay: inactive

Query: recorded result category for CC(C)(C)OC(=O)CN(Cc1ccc(Cl)cc1)Cc1ccc([N+](=O)[O-])s1 in this test inactive

----------
# assay-overview: Quantitative High-Throughput drug screen in 47 multiple myeloma cell lines against the NCATS MIPE library collection: Karpas25_ECACC cell viability assay (AID 1918968; further: nearly all actives have a fitted effect of over 35% in size)
# conditions: Karpas25 myeloma viability, CellTiter-Glo ATP, 48 h; series mostly up to 45.8 µM
Inconclusive results are not listed. Activity calls are given as the source filed them. The call rests on the fitted dose curve; in most records, active means well fitted cell-killing curve with a large enough effect; inconclusive means small, poorly fitted or top-dose-only effect, or effect the other way; inactive means no such curve, though single readings can be large or run the other way.
Select the correct class. Options are label 1 for active, label 0 for inactive and nothing else.

- compound: "Cn1cnc2c(F)c(Nc3ccc(Br)cc3Cl)c(C(=O)NOCCO)cc21"
  classification: "label 1"

Any idea what this test logged for CC(C)OC(=O)C1=CN(C(=O)c2ccc(F)c(F)c2)CC(C)(C)c2c1[nH]c1ccccc21 ? label 0

Assay outcome for Cc1[nH]c(=O)c(C#N)cc1-c1ccncc1 : what was it? label 1

Record lookup: outcome of this test for Nc1nc2[nH]cc(CCc3ccc(C(=O)N[C@@H](CCC(=O)O)C(=O)O)cc3)c2c(=O)[nH]1 ? label 0

Recorded test call requested for c1ccc([C@H]2CN3CCSC3=N2)cc1 label 0

----------
# assay-overview: Quantitative High-Throughput drug screen in 47 multiple myeloma cell lines against the NCATS MIPE library collection: UTMC2_PLB cell viability assay (AID 1919868); further: nearly all actives have a fitted effect of over 55% in size
# conditions: CellTiter-Glo ATP luminescence, 48 h
Results filed as inconclusive are left out. Active and inactive are the calls of the source. Calls come from the whole dose curve; as a rule, active = well fitted cell-killing curve with a large enough effect; inconclusive = small, poorly fitted or top-dose-only effect, or effect the other way; inactive = no such curve, though single readings can be large or run the other way.
Entry note: the call must match one of 1.0 (active), 0.0 (inactive)

For orientation, consider the following solved cases.
- compound: "N#CC[C@H](C1CCCC1)n1cc(-c2ncnc3[nH]ccc23)cn1"
  classification: 1.0
- compound: "N[C@@H]1CONC1=O"
  classification: 0.0
- compound: "CCN(c1ccccc1)c1cc(NC)[n+](C)c(C)n1"
  classification: 0.0
- compound: "Cc1csc(NC(=O)c2sc3nc4c(c(C(F)(F)F)c3c2N)CCC4)n1"
  classification: 0.0

Per the assay record, what outcome was assigned to CCOC(=O)N1CCC(=C2c3ccc(Cl)cc3CCc3cccnc32)CC1 ? 0.0

Write down the call the test reported for this compound. Item: CCCn1c(=O)c2[nH]c(C34CC5CC3C[C@@H](C5)C4)nc2n(CCC)c1=O 0.0

Outcome? Oc1cccc(-c2nc(N3CCOCC3)c3oc4ncccc4c3n2)c1 1.0

Field: outcome | Entry: CC(C)NCC(O)COc1ccc(COCCOC(C)C)cc1 (centres undefined) 0.0

GET /call?item= CNC[C@H](O)c1cccc(O)c1 returns the recorded outcome of this test. 1.0

For COc1ccc(-c2ccc3c(N4CCOC[C@H]4C)nc(N4CCOC[C@H]4C)nc3n2)cc1CO , what call appears in the results of this test? 1.0

Given CCCS(=O)(=O)Nc1ccc(F)c(C(=O)c2c[nH]c3ncc(-c4ccc(Cl)cc4)cc23)c1F , state the outcome it received in this test. 1.0

In this assay, the call recorded for Cc1cccc(-c2[nH]c(C(C)(C)C)nc2-c2ccc3nccnc3c2)n1 was what? 1.0

Hi, sorry to bother you, what did the test record for Cc1ccc(-n2nc(C(C)(C)C)cc2NC(=O)Nc2ccc(OCCN3CCOCC3)c3ccccc23)cc1 ? 1.0

Hey, what did the test say about Cc1oncc1C(=O)Nc1ccc(C(F)(F)F)cc1 ? 0.0

Short answer needed: outcome of this test for Cn1cnc2c(F)c(Nc3ccc(Br)cc3Cl)c(C(=O)NOCCO)cc21 ? 0.0

Which outcome was assigned to OCCn1cc(-c2cnc3nnn(Cc4ccc5ncccc5c4)c3n2)cn1 in this test? 0.0

Record lookup: outcome of this test for CS(=O)(=O)Oc1ccc2c(NC(N)=O)c(C(=O)c3ccc(Cl)cc3Cl)oc2c1 ? 1.0

Could you check what this test reported for CCC(C)(C)C(=O)O[C@H]1C[C@@H](C)C=C2C=C[C@H](C)[C@H](CC[C@@H]3C[C@@H](O)CC(=O)O3)[C@H]21 ? 1.0

Called result for COc1ccc(COc2cc3oc(=O)c4cc(C(C)O)ccc4c3cc2OC)cc1 (centres undefined) 1.0

Give the logged outcome of this assay for the following compound: Cc1cc2c(C(C)C)c(O)c(O)c(C=O)c2c(O)c1-c1c(C)cc2c(C(C)C)c(O)c(O)c(C=O)c2c1O 1.0

Check the results log: what was the call for O=c1n(CCCN2CCN(c3cccc(Cl)c3)CC2)nc2ccccn12 ? 0.0

Assay outcome for CCOc1cc(C(=O)Nc2ccc(Cl)c(-c3nc4ccccc4[nH]3)c2)cc(OCC)c1OCC : what was it? 0.0

Answer briefly: the call reported for Cn1cc(-c2ccc3nnc(C(F)(F)c4ccc5ncccc5c4)n3n2)cn1 in this assay. 0.0
